FYI, the data here is from PubChem BioAssay.

Catalogue of inhibition readings, one per entry.
biological target: Pantothenate synthetase (Mycobacterium tuberculosis (strain ATCC 25618 / H37Rv)) (UniProt P9WIL5); experiment: Coupled enzyme confirmation of inhibitors against recombinant Mtb PanC (AID 375); conditions: coupled enzyme assay; at 10 µM, hits give high values;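 further: 0% = full reaction with vehicle and 100% = no enzyme background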
Sequence (P9WIL5 whole entry, looked up): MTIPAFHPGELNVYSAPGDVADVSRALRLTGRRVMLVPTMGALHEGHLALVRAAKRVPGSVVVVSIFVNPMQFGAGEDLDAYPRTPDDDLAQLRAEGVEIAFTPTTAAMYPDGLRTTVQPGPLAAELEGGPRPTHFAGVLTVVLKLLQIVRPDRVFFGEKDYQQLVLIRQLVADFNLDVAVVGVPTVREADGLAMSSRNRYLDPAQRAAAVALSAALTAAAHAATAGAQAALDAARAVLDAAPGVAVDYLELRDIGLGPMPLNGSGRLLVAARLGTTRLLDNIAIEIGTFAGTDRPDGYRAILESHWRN
property: inhibition (%)

compound: O=C(Nc1ccc(-c2noc(-c3cccs3)n2)cc1)c1cccnc1
unit-tag: %
value-measured: 0
//
compound: CCc1cc2c(=O)c(-c3cscn3)coc2cc1O
unit-tag: %
value-measured: 0
//
compound: Cc1csc(NC(=O)c2ccoc2C)n1
unit-tag: %
value-measured: 0
//
compound: COc1ccc(-c2cc3nc(C)c(CCC(=O)NCc4ccco4)c(C)n3n2)c(OC)c1
unit-tag: %
value-measured: 0
//
compound: CS(=O)(=O)N(Cc1ccccc1)c1ccc(C(=O)N2CCOCC2)cc1
unit-tag: %
value-measured: 0
//
compound: O=C(NC1CCCC1)c1c[nH]c2ccc(F)cc2c1=O
unit-tag: %
value-measured: 0
//
compound: Cn1c(-c2ccccc2)c(CCO)c2ccccc21
unit-tag: %
value-measured: 9
//
compound: CCOC(=O)CSc1nnc(-c2ccc(S(=O)(=O)N3CCOCC3)cc2)n1-c1ccccc1
unit-tag: %
value-measured: 3
//
compound: CCC1Oc2ccc(C)cc2N(CC(=O)N(Cc2cccnc2)Cc2ccc(C)o2)C1=O (stereo not drawn)
unit-tag: %
value-measured: 4
//
compound: CCOc1cc(C2Nc3ccccc3C(=O)N2c2ccccc2OC)ccc1O (stereo not drawn)
unit-tag: %
value-measured: 0
//
compound: Cc1ccc(C)c(NC(=O)CSc2nnc(-c3ccccc3)o2)c1
unit-tag: %
value-measured: 5
//
compound: Cc1ccc2[nH]c(=O)c(CN(Cc3ccc4c(c3)OCO4)Cc3nnnn3Cc3ccco3)cc2c1
unit-tag: %
value-measured: 0
//
compound: O=C(CSc1nc2ccccc2s1)N1CCOCC1
unit-tag: %
value-measured: 0
//
compound: Cn1cccc1-c1nc2ccc(NC(=O)c3ccco3)cc2[nH]1
unit-tag: %
value-measured: 6
//
compound: Cc1nnc(SCC(=O)N2c3ccccc3CC2C)s1 (stereo not drawn)
unit-tag: %
value-measured: 0
//
compound: O=C(CN(c1ccc(F)cc1)S(=O)(=O)c1ccc2c(c1)OCCO2)Nc1ccc2c(c1)OCO2
unit-tag: %
value-measured: 3
//
compound: COc1cc2nc(SCC(=O)NC3CC3)n(CCC3=CCCCC3)c(=O)c2cc1OC
unit-tag: %
value-measured: 1
//
compound: CCn1cc(/C=C(/C#N)S(=O)(=O)c2ccccc2)cn1
unit-tag: %
value-measured: 2
//
compound: COC(=O)CSc1nnc(-c2ccc(OC)cc2OC)o1
unit-tag: %
value-measured: 0
//
compound: c1ccc(-c2nnc(SCc3nc4ccccc4[nH]3)o2)cc1
unit-tag: %
value-measured: 0
//
compound: Cc1cc(C)c(NC(=O)C2CSCCS2)c(C)c1 (stereo not drawn)
unit-tag: %
value-measured: 0
//
compound: CCN(CC)S(=O)(=O)c1ccc(Br)c(OC)c1
unit-tag: %
value-measured: 0
//
compound: Cc1nn(C(=O)c2ccccc2)c2c1C(=O)CC(C)(C)C2
unit-tag: %
value-measured: 0
